test: melting temperature; melt of duplexes; details: sodium 0.0675 M; strand 1 µM
QUANTITY_MEASURED: Tm (°C)
Give just the number in °C; leave the unit off.

Task item: Param item = CGACGTGCGCGATGTGCTG+CAGCACATTACGCACGTCG (((((((((..((((((((+))))))))..))))))))) ; retrieve measured Tm.
Reply: 54.9

Task item: Param item = CGACGTGCCCCATGTGCTG+CAGCACATGGCGCACGTCG ((((((((.((((((((((+)))))))))).)))))))) ; retrieve measured Tm.
Reply: 57.3

Task item: Param item = CGACGTGCCAAATGTGCTG+CAGCACATACGGCACGTCG (((((((((..((((((((+))))))))..))))))))) ; retrieve measured Tm.
Reply: 53.2

Task item: Param item = CGACGTGCCAAATGTGCTG+CAGCACATCCGGCACGTCG (((((((((..((((((((+))))))))..))))))))) ; retrieve measured Tm.
Reply: 53.3

Task item: Param item = CGACGTGCGTTATGTGCTG+CAGCACATAAAGCACGTCG ((((((((.((((((((((+)))))))))).)))))))) ; retrieve measured Tm.
Reply: 56

Task item: Param item = CGACGTGCATTATGTGCTG+CAGCACATTACGCACGTCG ((((((((.(.((((((((+)))))))).).)))))))) ; retrieve measured Tm.
Reply: 49.3

Task item: Param item = CGACGTGCAATATGTGCTG+CAGCACATCGAGCACGTCG ((((((((...((((((((+))))))))...)))))))) ; retrieve measured Tm.
Reply: 48.2

Task item: Param item = CGACGTGCAGGATGTGCTG+CAGCACATGCCGCACGTCG ((((((((.(.((((((((+)))))))).).)))))))) ; retrieve measured Tm.
Reply: 54

Task item: Param item = CGACGTGCTCTATGTGCTG+CAGCACATGGAGCACGTCG ((((((((((.((((((((+)))))))).)))))))))) ; retrieve measured Tm.
Reply: 59.7

Task item: Param item = CGACGTGCCCCATGTGCTG+CAGCACATCGGGCACGTCG ((((((((((.((((((((+)))))))).)))))))))) ; retrieve measured Tm.
Reply: 57.2

Task item: Param item = CGACGTGCCGAATGTGCTG+CAGCACATGTCGCACGTCG ((((((((...((((((((+))))))))...)))))))) ; retrieve measured Tm.
Reply: 51.4

Task item: Param item = CGACGTGCAGAATGTGCTG+CAGCACATGCTGCACGTCG ((((((((((.((((((((+)))))))).)))))))))) ; retrieve measured Tm.
Reply: 58.6

Task item: Param item = CGACGTGCAATATGTGCTG+CAGCACATCATGCACGTCG (((((((((..((((((((+))))))))..))))))))) ; retrieve measured Tm.
Reply: 50.3

Task item: Param item = CGACGTGCGAAATGTGCTG+CAGCACATCTGGCACGTCG ((((((((.(.((((((((+)))))))).).)))))))) ; retrieve measured Tm.
Reply: 50.6

Task item: Param item = CGACGTGCCAAATGTGCTG+CAGCACATAACGCACGTCG ((((((((...((((((((+))))))))...)))))))) ; retrieve measured Tm.
Reply: 47.7
